study-system: T1, IL-2-His (CX66, Novoprotein) (UniProt P60568 21-153)
T1 construct: Bought reagent; not shown: His tag
T1 sequence (P60568 21-153 limits assumed): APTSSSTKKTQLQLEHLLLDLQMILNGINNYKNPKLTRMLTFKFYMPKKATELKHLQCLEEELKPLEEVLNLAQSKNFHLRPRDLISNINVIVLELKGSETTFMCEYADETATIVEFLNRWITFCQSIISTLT
test-name: Octet: reading at 230 s of IL-2-His (100 nM) + antibody (500 nM) on biotin-IL-2Rα-Fc sensor; lower = stronger blocking
Quick list: Values for blocking IL-2Rα at an Octet level per entry.
Answer with a bare number; do not write a unit.

The examples below pair each entry with its known result.
D2-60 full-length fully human anti-IL-2 antibody (antibody, human IgG1, kappa, L234A L235A, V domains shown, Human IgG1 with LALA mutation, kappa light chain) VH: QVQLVQSGAEVKKPGASVKVSCKASGYTFTSYGISWVRQAPGQGLEWMGWISAYNGNTNYAQKLQGRVTMTTDTSTSTAYMELRSLRSDDTAVYYCAREYSSWYSGGMDVWGQGTTVTVSS VL: DIQMTQSPSSLSASVGDRVTITCRASQGISNYLAWYQQKPGKVPKLLIYAASTLQSGVPSRFSGSGSGTDFTLTISSLQPEDVATYYCQKYDSAPFTFGQGTRLEIKR: 0.754
A3-21 full-length fully human anti-IL-2 antibody (antibody, human IgG1, lambda, L234A L235A, V domains shown, Human IgG1 with LALA mutation) VH: EVQLLESGGGLAQPGGSLRLSCAGSGFTFSSYAMSWVRQAPGKGLEWVSGITGTGYRTYYADSVKGRFTVSRDNSRNTVYLQMNSLRAEDTAVYYCVRESGHYYGWFDSWGQGTLVTVSS VL: QSALTQPPSVSGAPGQRVTISCTGSSSNIGAGYNVHWYQQVPGTVPKLLIDGKGNRPSGVPDRFSGSKSGTSASLAITGLQAEDEADYYCQSYDYMLSGSVVFGRGTKLTVLG: 0.428
D3-68 full-length fully human anti-IL-2 antibody (antibody, human IgG1, kappa, L234A L235A, V domains shown, Human IgG1 with LALA mutation, kappa light chain) VH: QVQLVQSGPEVKKPGASVKVSCKASGYTFTSYGISWVRRAPGQGLEWMGWISAYNGNTNYAQKLQGRVTMTTDTSTSTAYMELRSLRSDDTAVYYCARDLQSPTYYYGSGVIDYWGQGTLVTVSS VL: DIQLTQSPSTLSASVGDRVTISCRASRAVSPWLAWYQHRPGQAPKLLIYAASSLQSGVPSRFSGSGSGTDFTLTISSLQPEDFATYYCQQYRSYPFTFGPGTTVDIRR: 0.473
C2-53 full-length fully human anti-IL-2 antibody (antibody, human IgG1, kappa, L234A L235A, V domains shown, Human IgG1 with LALA mutation, kappa light chain) VH: EVQLVESGGGLVQPGRSLILSCAASGFTFDDYAMHWVRQAPGKGLEWVSGISWNSGSIGYADSVKGRFTISRDNAKNSLYLQMNSLRAEDTALYYCAKDQLRWGTYYYYGMDVWGQGTTVTVSS VL: DIQMTQSPSTLSASVGDRVTITCRASQSVSIWVAWYQQKPGKAPKLLIYKASSLERGVPTRFSGSGSGTEFTLTISSLQPEDFATYHCQQYDTGATFGQGTKVEMKR: 0.41

Now look at this entry.
Can you share its Values for blocking IL-2Rα at an Octet level? I mean this binder: A2-22 full-length fully human anti-IL-2 antibody (antibody, human IgG1, kappa, L234A L235A, V domains shown, Human IgG1 with L234A/L235A (LALA), kappa light chain; expressed in HEK293) VH: QVQLVQSGAEVKKPGASVKVSCKASGYTFTSYYMHWVRQAPGQGLEWMGIINPSGGSTSYAQKFQGRVTMTRDTSTSTVYMELSSLRSEDTAVYYCAREDWMEYEYYYGMDVWGQGTLVTVSS VL: EIVLTQSPGTLSLSPGERATLSCRASQSVSNNYLAWYQQKPGQAPRLLIYGASSRATGIPDRFSGSGSGTDFTLTISRLEPEDFAVYSCQQYGSSPLTFGQGTRLEIKR 0.848
